All figures here come from patent US20110172168A1.

biological target: T1, CEA-derived … (SEQ ID NO: 71)-HLA-A*0201 complex (biotin on the C-terminal biotinylation tag (enzymatic, BirA)); assay: Biacore SPR, pMHC immobilised
T1 construct: also called soluble biotinylated HLA-A2-peptide complex; not shown: C-terminal biotinylation tag that replaces the transmembrane and cytoplasmic domains
Some binders, each annotated with its measured Kd.
readout: Kd

| binder | result |
| --- | --- |
| SEQ ID NO 63 (receptor) MGHLPKPTLWAEPGSVITMDQPVTLRCQGGQETQEYRLYREKKTAPWITRIPQELVKKGQFPIPSITWEHAGRYRCYYGSDTSQWSASSDPLELVVTGVYIKPTLSAQPSPVVNSGGNVTLQCDSPWLADGFILCKEGEDEHPQCLNSQPHARGSSRAIFSVGPVSPSRRWWYRCYAYMSWSPYEWSLPSDLLELDVDG | ≤ 1000 nM |
| SEQ ID NO 61 (receptor) MGHLPKPTLWAEPGSVITMDQPVTLRCQGGQETQEYRLYREKKTAPWITRIPQELVKKGQFPIPSITWEHAGRYRCYYGSDTSQWSASSDPLELVVTGVYIKPTLSAQPSPVVNSGGNVTLQCDSPWVADGFILCKEGEDEHPQCLNSQPHARGSSRAIFSVGPVSPSRRWWYRCYAYMSWSPYEWSLPSDLLELDVDG | ≤ 1000 nM |
| SEQ ID NO 17 (receptor) MAQHLPKPTLWAEPGSVITMDQPVTLRCQGGQETQEYRLYREKKTAPWITRIPQELVKKGQFPIPSITWEHAGRYRCYYGSDTSQWSASSDPLELVVTGVYIKPTLSAQPSPVVNSGGNVTLQCDSQVAYDGFILCKEGEDEHPQCLNSQPHARGSSRAIFSVGPVSPSRRWWYRCYAYDSNSPYEWSLPSDLLELDVDG | ≤ 1000 nM |
